Data origin, for the record: patent US9796711B2

# tgt: ΔF508-CFTR (Homo sapiens, UniProt P13569, DEL508-508)
# Construct: host or cells: CFBE41o-, doxycycline-inducible
# Sequence (P13569 with tags, fused parts or gaps DEL508-508): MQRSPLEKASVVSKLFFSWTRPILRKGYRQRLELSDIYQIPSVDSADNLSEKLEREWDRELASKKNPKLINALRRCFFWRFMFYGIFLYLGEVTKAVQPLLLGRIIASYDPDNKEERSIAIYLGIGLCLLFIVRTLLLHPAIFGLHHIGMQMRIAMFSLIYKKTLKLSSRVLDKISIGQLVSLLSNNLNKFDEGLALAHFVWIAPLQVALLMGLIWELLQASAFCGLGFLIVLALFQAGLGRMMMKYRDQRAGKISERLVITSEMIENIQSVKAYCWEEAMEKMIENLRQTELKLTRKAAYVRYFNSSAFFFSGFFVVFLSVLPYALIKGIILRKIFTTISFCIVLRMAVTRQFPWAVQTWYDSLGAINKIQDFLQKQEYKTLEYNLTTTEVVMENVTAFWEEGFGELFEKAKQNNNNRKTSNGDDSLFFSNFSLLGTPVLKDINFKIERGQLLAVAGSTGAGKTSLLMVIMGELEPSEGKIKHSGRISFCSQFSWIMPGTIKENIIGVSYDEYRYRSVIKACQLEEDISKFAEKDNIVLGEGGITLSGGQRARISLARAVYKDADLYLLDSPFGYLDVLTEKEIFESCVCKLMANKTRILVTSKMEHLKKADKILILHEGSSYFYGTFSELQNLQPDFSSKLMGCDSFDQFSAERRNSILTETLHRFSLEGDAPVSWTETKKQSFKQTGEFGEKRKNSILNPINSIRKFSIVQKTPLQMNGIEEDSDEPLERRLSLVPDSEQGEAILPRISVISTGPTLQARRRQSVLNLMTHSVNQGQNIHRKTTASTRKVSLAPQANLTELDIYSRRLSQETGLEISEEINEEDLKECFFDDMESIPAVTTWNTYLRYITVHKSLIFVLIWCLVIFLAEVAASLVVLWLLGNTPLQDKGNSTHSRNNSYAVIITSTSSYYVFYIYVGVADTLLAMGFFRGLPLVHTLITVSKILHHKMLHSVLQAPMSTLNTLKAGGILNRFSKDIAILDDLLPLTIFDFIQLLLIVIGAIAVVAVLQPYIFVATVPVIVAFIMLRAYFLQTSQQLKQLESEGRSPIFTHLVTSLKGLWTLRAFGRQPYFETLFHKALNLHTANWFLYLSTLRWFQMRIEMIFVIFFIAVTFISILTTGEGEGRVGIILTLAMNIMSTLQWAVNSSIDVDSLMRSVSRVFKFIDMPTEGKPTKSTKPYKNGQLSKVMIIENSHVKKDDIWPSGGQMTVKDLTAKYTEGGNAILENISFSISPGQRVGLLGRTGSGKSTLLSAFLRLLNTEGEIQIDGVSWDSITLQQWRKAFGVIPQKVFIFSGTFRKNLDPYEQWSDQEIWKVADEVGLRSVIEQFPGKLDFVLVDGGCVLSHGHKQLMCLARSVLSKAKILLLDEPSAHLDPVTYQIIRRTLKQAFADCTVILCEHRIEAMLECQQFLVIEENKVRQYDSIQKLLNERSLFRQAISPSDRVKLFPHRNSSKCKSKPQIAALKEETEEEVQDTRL
# assayExplanation: CFTR cell surface levels using HRP-tagged ΔF508-CFTR expressing CFBE cells, intrinsic corrector capacity
# Assay type: cell-based
# measurementParameters: HRP-tagged ΔF508-CFTR expressing CFBE cells; intrinsic corrector capacity (no co-corrector); 33° C., 20 hours; read-out: EC50
Lab note: cut-off is 500 nM. Strictly less in EC50 is yes (1). Exactly 500 nM or more is no (0).

| molecule | answerLabel |
| --- | --- |
| CC(C)c1nn(-c2ccc(F)cc2)c2nc(C(=O)O)cc(N3CCC4(CC3)OCCO4)c12 | no (0) |
| CC(C)c1nn(-c2ccc(F)cc2)c2nc(C(=O)O)cc(N3CCCN(C(C)C)CC3)c12 | no (0) |
| O=C(O)c1cc(N2CC(F)(F)C[C@H]2CO)c2c(C3CCC3)nn(-c3ccccc3)c2n1 | no (0) |
| COC1CN(CC2CCN(c3cc(C(=O)O)nc4c3c(C3CCC3)nn4-c3ccccc3)CC2)C1 | yes (1) |
| CC(C)c1nn(-c2ccc(F)cc2)c2nc(C(=O)O)cc(N3CCC(N4CCN(C5CC5)CC4)CC3)c12 | yes (1) |
| N#CC1CCN(C2CCN(c3cc(C(=O)O)nc4c3c(C3CCC3)nn4-c3ccc(F)cc3)CC2)CC1 | no (0) |
| CN(C1CCOCC1)C1CCN(c2cc(C(=O)O)nc3c2c(C2CCC2)nn3-c2ccc(F)cc2)CC1 | no (0) |
| O=C(O)c1cc(N2CCC(CN3CCCC3)CC2)c2c(C3CCC3)nn(-c3ccccc3)c2n1 | yes (1) |

**Query** Below 500 nM on EC50? Entry CC(C)c1nn(-c2ccc(F)cc2)c2nc(C(=O)O)cc(N3CCC4(CCCO4)CC3)c12
**Result** no (0)

**Query** Lab note: EC50 threshold 500 nM. Does this molecule come in strictly under it? CS(=O)(=O)[C@@H]1CCN(c2cc(C(=O)O)nc3c2c(C2CCC2)nn3-c2ccccc2)C1
**Result** no (0)

**Query** Consider O=C(O)c1cc(OCCC2CCOCC2)c2c(C3CCC3)nn(-c3ccccc3)c2n1 . Does its EC50 lie strictly below 500 nM?
**Result** no (0)

**Query** Lab note: EC50 threshold 500 nM. Does this molecule come in strictly under it? O=C(O)c1cc(N2CC[C@@H](F)C2)c2c(C3CCC3)nn(-c3ccccc3)c2n1
**Result** no (0)

**Query** Hello, is EC50 of the following molecule strictly smaller than 500 nM? CC(C)N1CCC2CN(c3cc(C(=O)O)nc4c3c(C3CCC3)nn4-c3ccc(F)cc3)CCC21 (stereo not shown)
**Result** yes (1)

**Query** Check if EC50 falls below 500 nM for CC1(CCOc2cc(C(=O)O)nc3c2c(C2CCC2)nn3-c2ccccc2)CC1 .
**Result** yes (1)

---

List of % Activity at 3 μM with co-corrector (Ieq) values.
# tgt: CFTR ΔF508 (Homo sapiens, UniProt P13569, DEL508-508)
# Construct: bronchial epithelial cells isolated from CF patients homozygous for the CFTR ΔF508 mutation; McGill University; Asterand; University of North Carolina hAEC-CF; host or cells: primary human bronchial epithelial cells from CF patients homozygous for ΔF508
# Sequence (P13569 with tags, fused parts or gaps DEL508-508): as above
# assayExplanation: Acute TECC assay on primary bronchial epithelial cells, with and without co-corrector
# Format: cell-based
# measurementParameters: bronchial epithelial cells from CF patients homozygous for CFTR ΔF508, 3 μM test compound for 24 h, with co-corrector, normalized to DMSO and positive control
# Description: Primary Bronchial Epithelial Cells Protocol The TECC (Tranepithelial Clamp Circuit, EP-design) assay measures the functionality of the cystic fibrosis Transmembrane Conductance regulator (CFTR) by measuring the short circuit current (Isc) generated over the basolateral and apical membrane of lung epithelial cells. In TECC the transepithelial potential PD and transepithelial resistance (Rt)) are measured in an open circuit and transformed to Ieq using Ohm's law. […]

Sample records with % Activity at 3 μM with co-corrector (Ieq):
| smilesNotation | endpointResult |
| --- | --- |
| CC(C)c1nn(-c2cccc(N3CCCC3)c2)c2nc(C(=O)O)cc(-c3ccc(N4CCC(C#N)CC4)nc3)c12 | 221.3% |
| Cc1cccc(-n2nc(C(C)C)c3c(N4CCC(CO)CC4)cc(C(=O)O)nc32)c1 | 199.4% |
| CC(C)c1nn(C2CCCCC2)c2nc(C(=O)O)cc(-c3ccc(N(C)C4CCOCC4)nc3)c12 | 279.1% |

--- query ---
Short answer for N#CC1CCN(c2ccc(-c3cc(C(=O)O)nc4c3c(C3CCC3)nn4C3CCCCC3)cn2)CC1 : % Activity at 3 μM with co-corrector (Ieq) was 122.9%

---

# tgt: ΔF508-CFTR (Homo sapiens, UniProt P13569, DEL508-508)
# Construct: host or cells: CFBE41o-, doxycycline-inducible
# assayExplanation: CFTR cell surface levels using HRP-tagged ΔF508-CFTR expressing CFBE cells, intrinsic corrector capacity
# Assay type: cell-based
# measurementParameters: HRP-tagged ΔF508-CFTR expressing CFBE cells; intrinsic corrector capacity (no co-corrector); 33° C., 20 hours
# % Activation per record follows
Kindly answer with a numeric value in %, unit omitted.

Worked examples follow.
| compound | tgt | endpointResult |
| --- | --- | --- |
| CC(=O)N1CC[C@H]2CN(c3cc(C(=O)O)nc4c3c(C3CCC3)nn4-c3ccccc3)CC[C@H]21 (single isomer, unassigned) | ΔF508-CFTR (Homo sapiens, UniProt P13569, DEL508-508) | 232.6 |
| N#CC1CCN(c2ccc(-c3cc(C(=O)O)nc4c3c(OC3CCOC3)nn4-c3ccccc3)cn2)CC1 (stereo not shown) | ΔF508-CFTR (Homo sapiens, UniProt P13569, DEL508-508) | 106.3 |
| Cc1cc(N2CCN(c3cc(C(=O)O)nc4c3c(C3CCC3)nn4C3CCCCC3)CC2)ccn1 | ΔF508-CFTR (Homo sapiens, UniProt P13569, DEL508-508) | 337.7 |

// field: % Activation; key: COC1(C)CCN(c2cc(C(=O)O)nc3c2c(C(C)C)nn3-c2ccc(F)cc2)CC1 ; value = 73.11

For COCC1CCN(c2cc(C(=O)O)nc3c2c(C(C)C)nn3CC2CCC2)CC1 the compound record lists % Activation as 120.7

Entry COCC1CCN(c2cc(C(=O)O)nc3c2c(C(C)C)nn3-c2ccnc(N3CCOCC3)n2)CC1 , % Activation reported as 232.15

Measured % Activation of CCOCC(=O)N1CCN(c2cc(C(=O)O)nc3c2c(C(C)C)nn3-c2ccc(F)cc2)CC1 : 93.07

Notebook: O=C(O)c1cc(N2CCC3(CC2)CCN(C2CC2)CC3)c2c(C3CCC3)nn(-c3ccc(F)cc3)c2n1 , % Activation read as 191.35

Form: compound = CS(=O)(=O)[C@@H]1CCN(c2cc(C(=O)O)nc3c2c(C2CCC2)nn3-c2ccccc2)C1 ; % Activation = 97.95

For reference, reported % Activation for CCOCC1(F)CCN(c2cc(C(=O)O)nc3c2c(C2CCC2)nn3-c2ccccc2)C1 (stereo not shown) stands at 99.8

Query O=C(O)c1cc(OCCCN2CCCCC2)c2c(C3CCC3)nn(-c3ccccc3)c2n1 yields % Activation of 125.9

Field % Activation (entry O=C(O)c1cc(OCCCN2CCOCC2)c2c(C3CCC3)nn(-c3ccccc3)c2n1 ) reads 142.7

C[C@@H](CN(C)C)Oc1cc(C(=O)O)nc2c1c(C1CCC1)nn2-c1ccccc1 has a reported % Activation of 44.6

% Activation recorded for this compound, CO[C@H]1CC[C@@H](Oc2cc(C(=O)O)nc3c2c(C2CCC2)nn3-c2ccccc2)CC1 , is 128.05

Briefly, % Activation measured for COCCN(C)c1cc(C(=O)O)nc2c1c(C1CCC1)nn2-c1ccccc1 : 131.9

For this compound ( O=C(O)c1cc(OCCC2CCOCC2)c2c(C3CCC3)nn(-c3ccccc3)c2n1 ), measured % Activation is 120.3

% Activation measured on O=C(O)c1cc(N2CCC(N3CCC(F)CC3)CC2)c2c(C3CCC3)nn(-c3ccc(F)cc3)c2n1 = 249.1

Notebook: COC[C@H]1CCN(CC2CCN(c3cc(C(=O)O)nc4c3c(C3CCC3)nn4-c3ccccc3)CC2)C1 , % Activation read as 191.15

// sample O=C(O)c1cc(N2CCC(N3CCOCC3)CC2)c2c(C3CCC3)nn(-c3ccnc(O)c3)c2n1 , its % Activation was 66.2

The compound identified as CC(C)c1nn(-c2ccc(F)cc2)c2nc(C(=O)O)cc(N3CCCN(C4CCC4)CC3)c12 registered its % Activation at 59.96

Briefly, % Activation measured for CC(C)c1nn(C2CCCCC2)c2nc(C(=O)O)cc(C3=CC(C)(C)OC(C)(C)C3)c12 : 43.815

Kindly note the recorded % Activation for CS(=O)(=O)C1(COc2cc(C(=O)O)nc3c2c(C2CCC2)nn3-c2ccccc2)CCOCC1 , which is 9.221

Recorded result, CC(C)c1nn(-c2ccc(F)cc2)c2nc(C(=O)O)cc(N3CCN4CCC[C@@H]4C3)c12 , % Activation: 85.33
